Biological target: human 5HT1A-serotonergic receptor (Homo sapiens, UniProt P08908)
Construct: expressed in transfected cells; host or cells: HeLa (human), stably transfected; membranes
Sequence (P08908 whole entry): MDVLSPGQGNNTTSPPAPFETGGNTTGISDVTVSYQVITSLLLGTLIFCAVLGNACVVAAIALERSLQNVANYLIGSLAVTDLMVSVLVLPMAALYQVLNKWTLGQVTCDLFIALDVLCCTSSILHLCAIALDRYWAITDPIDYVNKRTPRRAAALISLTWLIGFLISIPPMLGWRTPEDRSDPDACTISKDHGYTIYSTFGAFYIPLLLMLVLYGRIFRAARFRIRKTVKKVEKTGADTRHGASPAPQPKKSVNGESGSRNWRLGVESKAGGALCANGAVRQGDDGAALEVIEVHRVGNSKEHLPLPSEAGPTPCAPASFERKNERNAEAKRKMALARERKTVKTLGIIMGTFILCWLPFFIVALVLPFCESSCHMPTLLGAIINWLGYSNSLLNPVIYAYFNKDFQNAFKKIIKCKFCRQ
Assay: Radioligand binding to recombinant 5-HT1A receptor ([3H]8-OH-DPAT, HeLa cell membranes)
Conditions: 1 nM [3H]8-OH-DPAT; Ki from IC50 by the Cheng equation; read-out: Ki (nM), binding affinity for 5HT1A receptor
Rule: Ki below 0.8 nM gives YES, anything at or above gives NO.

compound: CON=C(C1CCCCC1)C(CCN1CCN(c2ccccc2OC)CC1)c1ccccc1F (centres unmarked)
label: NO
--
compound: CO/N=C(\C1CCCCC1)C(CCN1CCN(c2cccc3c2OCCO3)CC1)c1ccccc1C#N (racemic)
label: YES
--
compound: CNC(C1CCCCC1)C(CCN1CCN(Cc2cc(OC)ccc2Br)CC1)c1ccccc1F (centres unmarked)
label: YES
--
compound: COc1ccccc1N1CCN(CC[C@@H](c2ccccc2F)[C@H](NCc2ccco2)C2CCCCC2)CC1 (racemic)
label: YES
--
compound: CON=C(C)C(CCN1CCN(c2ccccc2OCC(F)(F)F)CC1)c1ccccc1F (centres unmarked)
label: NO
--
compound: COc1ccccc1N1CCN(CCC(c2ccccc2F)C(NC=O)C2CCCCC2)CC1 (centres unmarked)
label: NO
--
compound: COC(=O)N[C@H](C1CCCCC1)[C@@H](CCN1CCN(c2ccccc2OC)CC1)c1ccccc1F (racemic)
label: YES
